Data credit: paper PMC10409285

Entries and their pIC50
Target: DR2b (DRB1*15:01) (Homo sapiens, UniProt P01903+P01911)
Construct: Soluble DRB1*15:01 and DRB5*01:01 with a covalently linked CLIP peptides; covalently linked CLIP peptide (3C-protease-cleavable linker) (cleaved yes)
Assay: fluorescence polarization competition binding assay, DR2b
Settings: mean of two independent experiments
pIC50: −log10 of the molar value.
Observable: pIC50

1) CC(C)C[C@H](NC(=O)[C@H](C)NC(=O)[C@H](C)NC(=O)[C@@H](N)CC(C)C)C(=O)N[C@@H](CC(N)=O)C(=O)N[C@@H](C)C(=O)N[C@@H](Cc1ccccc1)C(=O)N[C@H](C(=O)N[C@@H](CO)C(=O)N[C@@H](CCC(N)=O)C(=O)N[C@H](C(=O)N[C@@H](CC(C)C)C(=O)N[C@@H](CC(N)=O)C(=O)N[C@@H](CCCCN)C(=O)N[C@@H](Cc1ccc(O)cc1)C(=O)O)C(C)C)C(C)C [Peptide P11.NL63] :: 6.25
2) CC[C@H](C)[C@H](NC(=O)[C@@H](NC(=O)[C@H](CC(N)=O)NC(=O)[C@H](CO)NC(=O)[C@H](CCCCN)NC(=O)[C@H](CCC(=O)O)NC(=O)[C@@H](NC(=O)[C@H](CO)NC(=O)[C@H](C)NC(=O)[C@H](Cc1ccccc1)NC(=O)[C@H](Cc1ccc(O)cc1)NC(=O)[C@@H](NC(=O)CNC(=O)[C@H](CC(=O)O)NC(=O)[C@H](CC(N)=O)NC(=O)[C@@H](N)Cc1ccccc1)C(C)C)[C@@H](C)O)[C@@H](C)CC)C(=O)O [S#18 (CoV2)] :: 3.11
3) CC(C)C[C@H](NC(=O)[C@H](C)NC(=O)[C@@H](NC(=O)[C@@H](N)CC(C)C)[C@@H](C)O)C(=O)N[C@@H](CC(N)=O)C(=O)N[C@@H](C)C(=O)N[C@@H](Cc1ccc(O)cc1)C(=O)N[C@H](C(=O)N[C@@H](CO)C(=O)N[C@@H](CCC(N)=O)C(=O)N[C@@H](CCC(N)=O)C(=O)N[C@@H](CC(C)C)C(=O)N[C@@H](CO)C(=O)N[C@@H](CC(=O)O)C(=O)N[C@@H](CO)C(=O)O)C(C)C [Peptide P11] :: 6.85

---

Entries and their log10 IC50
Biological target: DP4.1 (HLA-DPA1*01:03/DPB1*04:01) (Homo sapiens, UniProt P04440+P20036)
Assay: fluorescence polarization competition binding assay, DP4.1
Observable: log10 IC50 (log10 of the value in µM)

1) CC(C)C[C@H](NC(=O)[C@H](CCC(=O)O)NC(=O)[C@H](CC(C)C)NC(=O)[C@H](CCCNC(=N)N)NC(=O)[C@H](CO)NC(=O)CNC(=O)[C@H](Cc1ccccc1)NC(=O)[C@H](Cc1ccccc1)NC(=O)[C@H](Cc1ccccc1)NC(=O)[C@H](C)NC(=O)CN)C(=O)N[C@@H](C)C(=O)N[C@@H](CCCCN)C(=O)N[C@H](C(=O)N[C@@H](CCC(N)=O)C(=O)N[C@@H](CC(N)=O)C(=O)O)C(C)C [Peptide P2] :: 2.07
2) CC[C@H](C)[C@H](NC(=O)[C@H](Cc1ccccc1)NC(=O)[C@H](Cc1ccc(O)cc1)NC(=O)[C@H](CC(C)C)NC(=O)CNC(=O)[C@H](Cc1ccc(O)cc1)NC(=O)[C@@H]1CCCN1C(=O)[C@H](C)N)C(=O)N[C@@H](Cc1c[nH]cn1)C(=O)N[C@@H](Cc1ccccc1)C(=O)N[C@@H](CO)C(=O)N[C@@H](Cc1ccc(O)cc1)C(=O)N[C@H](C(=O)N1CCC[C@H]1C(=O)N[C@H](C(=O)N[C@@H](CCCCN)C(=O)O)[C@@H](C)O)C(C)C [Peptide P6] :: 1.91
3) CC[C@H](C)[C@H](NC(=O)[C@H](C)NC(=O)[C@H](CO)NC(=O)[C@@H](N)CCCNC(=N)N)C(=O)N[C@@H](CCC(=O)O)C(=O)N[C@@H](CC(=O)O)C(=O)N[C@@H](CC(C)C)C(=O)N[C@@H](CC(C)C)C(=O)N[C@@H](Cc1ccccc1)C(=O)N[C@@H](CC(=O)O)C(=O)N[C@@H](CCCCN)C(=O)N[C@H](C(=O)N[C@@H](CCCCN)C(=O)N[C@@H](CC(C)C)C(=O)N[C@@H](CO)C(=O)O)C(C)C [Peptide P4] :: 0.48
4) CC[C@H](C)[C@H](N)C(=O)N[C@@H](Cc1c[nH]cn1)C(=O)N[C@@H](Cc1ccccc1)C(=O)N[C@@H](CO)C(=O)N[C@@H](Cc1ccc(O)cc1)C(=O)N[C@H](C(=O)N1CCC[C@H]1C(=O)N[C@H](C(=O)N[C@@H](CCCCN)C(=O)N[C@@H](Cc1ccc(O)cc1)C(=O)N[C@H](C(=O)N[C@H](C(=O)N[C@@H](C)C(=O)N[C@@H](CCCNC(=N)N)C(=O)N[C@H](C(=O)N[C@@H](CO)C(=O)N1CCC[C@H]1C(=O)NCC(=O)O)C(C)C)[C@@H](C)O)C(C)C)[C@@H](C)O)C(C)C [Peptide P7] :: 0.97
5) CC(C)C[C@H](NC(=O)CNC(=O)[C@H](CO)NC(=O)[C@@H](NC(=O)[C@@H](NC(=O)[C@@H](NC(=O)[C@H](CCCCN)NC(=O)[C@H](CO)NC(=O)[C@H](Cc1ccccc1)NC(=O)[C@H](CC(C)C)NC(=O)[C@H](CC(C)C)NC(=O)[C@H](CC(=O)O)NC(=O)[C@H](CCC(=O)O)NC(=O)[C@H](CC(C)C)NC(=O)[C@H](C)NC(=O)[C@@H](N)CO)C(C)C)C(C)C)[C@@H](C)O)C(=O)NCC(=O)O :: 0.54
